# target_desc: R232-STING (Homo sapiens, UniProt Q86WV6, H232R)
# Sequence (Q86WV6 155-341 H232R): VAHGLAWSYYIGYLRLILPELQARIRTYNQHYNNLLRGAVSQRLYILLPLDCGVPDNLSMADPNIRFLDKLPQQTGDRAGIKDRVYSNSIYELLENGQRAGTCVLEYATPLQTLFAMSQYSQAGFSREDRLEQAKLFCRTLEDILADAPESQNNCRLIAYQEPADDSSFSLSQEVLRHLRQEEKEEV
# procedure_text: biochemical
Hi! Could you tag entries with Ki below 500 nM as T, and those at or above as F? Much appreciated.

Hi there! Is Ki for CCn1nc(C)cc1-c1nnc(-c2cc(C(N)=O)cc3nn(C)nc23)[nH]1 below 500 nM, do you know?
F

Hi there! Is Ki for CCn1nc(C)cc1-c1nnc(-c2cc(C(N)=O)cc3c2cnn3CCCC2CCNCC2)[nH]1 below 500 nM, do you know?
F

Hi there! Is Ki for CCn1nc(C)cc1-c1nnc(-c2cc(C(N)=O)cc3[nH]ncc23)[nH]1 below 500 nM, do you know?
F

Hi there! Is Ki for CCn1nc(C)cc1-c1nnc(-c2cc(C(N)=O)cc3c2cnn3C[C@H]2CC23CCNCC3)[nH]1 (racemic) below 500 nM, do you know?
F

Hi there! Is Ki for CCn1nc(C)cc1-c1nnc(-c2cc(C(N)=O)cc3c2cnn3CC[C@H](C)C2CCNCC2)[nH]1 (racemic) below 500 nM, do you know?
T

Hi there! Is Ki for CCn1nc(C)cc1-c1n[nH]c(-c2cc(C(N)=O)cc3c2cnn3CCN2CC(CO)OCC2C)n1 (centres unmarked) below 500 nM, do you know?
F

###

# target_desc: R232-STING (Homo sapiens, UniProt Q86WV6, H232R)
# procedure_text: biochemical
Please provide measured pKi for the entries that follow.
Quick note: pKi values are minus log10 of concentrations in mol/L.

Requested read-out pKi, target or system R232-STING (Homo sapiens, UniProt Q86WV6, H232R), entry CCn1nc(C)cc1-c1n[nH]c(-c2cc(C(N)=O)cc3c2cnn3CCN2CCO[C@@H](C)C2)n1 [YY24]
6.45

Requested read-out pKi, target or system R232-STING (Homo sapiens, UniProt Q86WV6, H232R), entry CCn1nc(C)cc1-c1nnc(-c2cc(C(N)=O)cc3c2cnn3C2CCNCC2)[nH]1 [ZZZ067]
6.27

Requested read-out pKi, target or system R232-STING (Homo sapiens, UniProt Q86WV6, H232R), entry CCn1ncc(O)c1-c1nc(-c2nc(C(N)=O)cc3c2cnn3C)c(CN)o1 [Example U02]
7.29

Requested read-out pKi, target or system R232-STING (Homo sapiens, UniProt Q86WV6, H232R), entry CCn1nc(C)c(F)c1-c1nnc(-c2cc(C(N)=O)cn3cncc23)[nH]1 [ZZZ128]
6.25

Requested read-out pKi, target or system R232-STING (Homo sapiens, UniProt Q86WV6, H232R), entry CCn1nc(C)cc1-c1n[nH]c(-c2cc(C(N)=O)cc3c2cnn3CCN2C[C@H](O)[C@H]2C)n1 [ZZZ091]
6.08

Requested read-out pKi, target or system R232-STING (Homo sapiens, UniProt Q86WV6, H232R), entry CCn1nc(C)cc1-c1nnc(-c2cc(C(N)=O)cc3c2cnn3CCN2CCC(OC)CC2)[nH]1 [YY11]
6.28

###

Please provide measured Ki for the entries that follow.
# target_desc: R232-STING (Homo sapiens, UniProt Q86WV6, H232R)
# procedure_text: biochemical

Fill in the blank: the reported Ki of CCn1nc(C)cc1-c1n[nH]c(-c2cc(C(N)=O)cc3c2cnn3C(C)CN2CCOCC2)n1 (stereo not shown) is ____.
0.301 µM

Fill in the blank: the reported Ki of CCN(CCO)CCn1ncc2c(-c3nc(-c4cc(C)nn4CC)n[nH]3)cc(C(N)=O)cc21 is ____.
> 0.99 µM

Fill in the blank: the reported Ki of CCn1nc(C)cc1-c1n[nH]c(-c2cc(C(N)=O)cc3c2cnn3CCN2CCO[C@H](C)C2)n1 is ____.
0.541 µM

Fill in the blank: the reported Ki of CCn1nc(C)cc1-c1nnc(-c2cc(C(N)=O)cc3c2cnn3[C@H]2CCCNC2)[nH]1 (racemic) [ZZZ069] is ____.
> 0.99 µM
